- PROCEDURE_SUMMARY: P-glycoprotein substrates identified in KB-8-5-11 adenocarcinoma cell line, qHTS therapeutic library screen (AID 1346987); further: nearly all actives have a fitted effect of over 65% in size
- PROTOCOL_CONDITIONS: KB-8-5-11 (P-gp overexpressing) viability, CellTiter-Glo, 72 h; series mostly up to 44.5 µM
- Method: The ATP-binding cassette transporters P-glycoprotein (P-gp) is known to limit brain penetration of many chemotherapy drugs. […] All cell lines were plated into 1536-well plates at 500 cells/well in 5 uL media. […] CellTiter-Glo reagent (Promega) was dispensed into the wells, incubated for 5 min and luminescence was read on a ViewLux instrument (Perkin-Elmer). […]
Results filed as inconclusive are left out. Calls of active or inactive are those of the source. The call rests on the fitted dose curve; in most records, active means well fitted inhibition curve with a large enough effect; inconclusive means small, poorly fitted or top-dose-only effect; inactive means flat fitted curve, though single readings scatter.
Pick one: active, inactive

[
  {
    "COMPOUND": "CC[C@]1(O)CC2CN(CCc3c([nH]c4ccccc34)[C@@](C(=O)OC)(c3cc4c(cc3OC)N(C)[C@H]3[C@@](O)(C(=O)OC)[C@H](OC(C)=O)[C@]5(CC)C=CCN6CC[C@]43[C@@H]65)C2)C1 (some centres undefined)",
    "CATEGORY_LABEL": "active"
  }
]

**Q:** State the result this test recorded for Oc1ccc(CNc2ccccc2F)c2cccnc12 .
**A:** active

**Q:** State the result this test recorded for C[C@@H](Oc1cc(-n2cnc3ccc(OC4CCN(C)CC4)cc32)sc1C(N)=O)c1ccccc1C(F)(F)F .
**A:** active

**Q:** State the result this test recorded for CC1(C)CC[C@]2(C(=O)O)CC[C@]3(C)C(=CCC4[C@@]5(C)C[C@@H](O)[C@H](O)C(C)(C)C5CC[C@]43C)C2C1 (some centres undefined) .
**A:** inactive
